tested on: Escherichia coli TOP10; assay: shrunken log2 fold change of peptide-encoding DNA abundance (4.5 h post-induction vs induction); higher = less antimicrobial activity (less host growth inhibition); conditions: time post-induction: 4.5 h; library: site-saturation at positions 5, 18, 19, 20;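 also: peptides expressed intracellularly from a pBAD plasmid library in pooled LB shake-flask culture, induced with 0.3% L-arabinose, DNA abundance read by NGS, three biological replicates, DESeq2 with apeglm shrinkage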
endpoint-label: shrunken log2 fold change

monomer-sequence | endpoint-label | value-observed
RRIRRRPPRLPRPRPRPVVTPRP | shrunken log2 fold change | 0.911
RRIRVRPPRLPRPRPRPRMNPRP | shrunken log2 fold change | -0.0411
RRIRRRPPRLPRPRPRPCTKPRP | shrunken log2 fold change | -0.147
RRIRGRPPRLPRPRPRPMDIPRP | shrunken log2 fold change | 0.0445
RRIRARPPRLPRPRPRPQDDPRP | shrunken log2 fold change | 0.274
RRIRERPPRLPRPRPRPPKYPRP | shrunken log2 fold change | -0.294

Req: I'd like to know its shrunken log2 fold change. The sequence in question is RRIRSRPPRLPRPRPRPVGEPRP
Resp: 0.332

Req: Which value of shrunken log2 fold change has been reported for RRIRDRPPRLPRPRPRPYSRPRP in the records?
Resp: -0.00164

Req: What shrunken log2 fold change value was documented for this sequence, RRIRWRPPRLPRPRPRPKNCPRP ?
Resp: -0.122

Req: # lookup: shrunken log2 fold change of RRIRDRPPRLPRPRPRPSEIPRP
Resp: -0.167

Req: shrunken log2 fold change lookup needed for RRIRMRPPRLPRPRPRPDPPPRP , thanks.
Resp: 1.23

Req: If you can, please state the reported shrunken log2 fold change value of RRIRRRPPRLPRPRPRPQAIPRP .
Resp: -0.0149

Req: Entry RRIRQRPPRLPRPRPRPLRHPRP has what shrunken log2 fold change?
Resp: 0.323

Req: // query shrunken log2 fold change value for entry RRIRTRPPRLPRPRPRPAMPPRP
Resp: 0.131

Req: Report shrunken log2 fold change for RRIRIRPPRLPRPRPRPGERPRP please.
Resp: -0.0896

Req: Name the recorded shrunken log2 fold change for RRIRGRPPRLPRPRPRPYYIPRP .
Resp: -0.233

Req: Can you share its shrunken log2 fold change? I mean this sequence: RRIRKRPPRLPRPRPRPMSMPRP
Resp: 0.0472

Req: // query shrunken log2 fold change value for entry RRIRWRPPRLPRPRPRPHFWPRP
Resp: 0.27

Req: Suppose we examine the sequence RRIRKRPPRLPRPRPRPDLTPRP ; what shrunken log2 fold change value has been reported?
Resp: -0.000918

Req: Which shrunken log2 fold change is reported for this sequence? RRIRLRPPRLPRPRPRPDDNPRP
Resp: -0.138

Req: Sample RRIRLRPPRLPRPRPRPTAMPRP — what was its shrunken log2 fold change?
Resp: 0.0595

Req: Given the sequence RRIRHRPPRLPRPRPRPFGTPRP , what is its reported shrunken log2 fold change?
Resp: -0.213

Req: Field request: shrunken log2 fold change | item: RRIRTRPPRLPRPRPRPRMHPRP
Resp: 0.0254

Req: Reported shrunken log2 fold change, sequence RRIRFRPPRLPRPRPRPANSPRP : ____
Resp: -0.448

Req: # shrunken log2 fold change lookup, item RRIRWRPPRLPRPRPRPHTIPRP
Resp: -0.533

Req: State the recorded shrunken log2 fold change for this entry: RRIRSRPPRLPRPRPRPQLMPRP
Resp: -0.1

Req: Please look up its shrunken log2 fold change: RRIRARPPRLPRPRPRPVCQPRP
Resp: 0.58
